# Tested on: SF-268 CNS
# experiment: NCI tumour cell line growth inhibition, 48 h
Consider the following molecules; for each one, report its TGI.

Bench note: what TGI did COc1ccc(NC(=O)CC2SC(=Nc3ccc(Cl)cc3C)NC2=O)c([N+](=O)[O-])c1 (stereo unspecified) show?
> 100 µM

Record request: TGI value, item CNC(=O)/C(C#N)=C(\N)N1CCCC1
> 100 µM

What value of measured TGI is listed for COC(=O)c1cc(NC(=O)Cn2c3ccccc3c3ccccc32)cn1C ?
> 100 µM

Would you kindly share the measured TGI for OC[C@@H](O)[C@H](O)[C@H](O)[C@@H](O)C1SCCCS1 ?
> 100 µM

Could you tell me which TGI is on file for CC(C)C(N=C1CC2CCC1(C(=O)Nc1ccccc1O)C2(C)C)c1ccccc1 (stereo unspecified) ?
> 10 µM

Given the molecule C=C1C(O)C2OC(=O)C(=C)C2C(OC(=O)/C(C)=C/C)CC2(C)OC2C2OC12 (stereo unspecified) , what is its reported TGI?
> 100 µM

---

Give measured GI50 for each item. Keep answers brief.
# Tested on: LOX IMVI melanoma
# experiment: NCI tumour cell line growth inhibition, 48 h

Recorded GI50 of O=[N+]([O-])c1ccc(NC(c2ccccc2)c2ccc3cccnc3c2O)cc1 (stereo not drawn) , please.
0.293 µM

Requested read-out: GI50. Entry: N/C(=N/O)NOCCC(N)C(=O)O (stereo not drawn)
> 100 µM

Would you kindly share the measured GI50 for Clc1ccc(Nc2nnc(COc3ccccc3)c3ccccc23)cc1 ?
1.29 µM

---

# Tested on: SNB-75 CNS
# experiment: NCI tumour cell line growth inhibition, 48 h; in the data active means GI50 below about 0.43 µM; inactive means the rest
Tick one outcome: active, inactive

Could you check what this test reported for C=C1C(=O)O[C@H]2[C@H]1CC/C(COC(=O)NCCc1ccc(Br)cc1)=C\CC[C@@]1(C)O[C@@H]21 ?
inactive

Which outcome was assigned to O=C(/C=C/c1cc2ccccc2[nH]c1=O)c1ccc(O)cc1 in this test?
inactive

What call does the record list for COc1cc(N2CCN(C(C)C)CC2)ccc1Nc1nc(Nc2ccc(F)cc2C(N)=O)c2cc[nH]c2n1 ?
inactive

Any idea what this test logged for C#Cc1cccc(NC(=O)C2CCCCN2C(=O)CCl)c1 (stereo unspecified) ?
inactive

Tell me the recorded outcome of this test for COc1ccc(C2CC(=O)Nc3c2c(C)nn3-c2nc3ccccc3[nH]2)cc1OC (stereo unspecified) .
inactive

Record request — test call for COC1C[C@H](O[C@@H]2C[C@H](O[C@@H]3C[C@H](O[C@@H]4C(=O)c5c(cc6cc(O[C@H]7C[C@@H](O[C@H]8C[C@@H](O)[C@H](O)C(C)O8)[C@H](O)C(C)O7)c(C)c(O)c6c5O)C[C@H]4C(OC)C(=O)[C@@H](O)[C@@H](C)O)OC(C)[C@H]3O)OC(C)[C@@H]2O)OC(C)[C@@H]1O (stereo partly specified)
active

---

# Tested on: UACC-257 melanoma
# experiment: NCI tumour cell line growth inhibition, 48 h
Given measured TGI, output t if it is greater than or equal to 20 µM and f if not.

Would you say CN1CCN(CCCn2c3c(sc4ncccc43)c(=O)n3nnc(-c4ccccc4)c23)CC1 shows TGI at minimum 20 µM?
f

Does TGI meet or surpass 20 µM for COc1ccc(COc2ccc(Cc3cnc(N)nc3N)cc2OC)cc1 ?
t

Please check the record COc1cc2c(cc1OC)C/C(=N\O)c1cc(OC)c(OC)cc1/C=C\2 and state if its TGI is at or above 20 µM.
t

Record COc1cc2ccnc3c2c(c1OC)N(C)C=C3 ; criterion: TGI no lower than 20 µM. Met?
t

TGI >= 20 µM for O=S(=O)(O)c1ccc([Se][Se]c2ccc(S(=O)(=O)O)cc2)cc1 ?
t

Dear colleague, could you confirm whether CSCCC(NOC(=O)Cc1ccccc1)P(=O)(O)c1ccccc1 (centres undefined) has TGI at or above 20 µM?
t

Is TGI at least 20 µM? Consider CCN(CC)CCNC(=O)C1COc2ccc(-c3cc(=O)c4ccccc4o3)cc2O1 (centres undefined)
t

Please check the record Cc1ccccc1N=C(c1ccccc1)C1C(=O)c2ccccc2C1=O and state if its TGI is at or above 20 µM.
t

Would you say COC1C[C@H](O[C@@H]2C[C@H](O[C@@H]3C[C@H](O[C@@H]4C(=O)c5c(cc6cc(O[C@H]7C[C@@H](O[C@H]8C[C@@H](O)[C@H](O)C(C)O8)[C@H](O)C(C)O7)c(C)c(O)c6c5O)C[C@H]4C(OC)C(=O)[C@@H](O)[C@@H](C)O)OC(C)[C@H]3O)OC(C)[C@@H]2O)OC(C)[C@@H]1O (some centres undefined) shows TGI at minimum 20 µM?
f

State whether the measured TGI reaches 20 µM, counting equality as reaching it, for O/N=C1/C(=C/c2ccc(Br)cc2)CCCC1C(NO)c1ccc(Br)cc1 (centres undefined)
t

Reported TGI at or above 20 µM? COc1c(C(=O)CC2c3c(cc4oc(C)cc(=O)c4c3OC)OC(=N)C2c2nc3ccccc3[nH]2)c(O)c(OC)c2occc12 (centres undefined)
t

Check if TGI >= 20 µM (inclusive). Item: Cc1ccc(S(=O)(=O)N(CC(O)COc2ccccc2)c2ccccc2Cl)cc1 (centres undefined)
t
